Assay: ABTS free radical scavenging assay
Assay type: biochemical
Conditions: 62.5 μg/mL
Cut-off 50% on ABTS %inhibition, inclusive. At or above means Satisfied; below means Not satisfied.

{"columns": ["COMPOUND", "CLASS NAME"],
 "data": [
  ["Cc1cccnc1NC(=S)Nc1ccccc1", "Satisfied"],
  ["O=C(O)c1cc(O)c(O)c(O)c1 [Gallic acid, gallic acid, reference compound]", "Satisfied"],
  ["Cc1ccc(NC(=S)NC2CCCCC2)c(C)c1", "Not satisfied"],
  ["S=C(Nc1ccc(Cl)cc1)NC1CCCCC1", "Not satisfied"],
  ["S=C(Nc1ccccc1)Nc1cccc(Cl)c1", "Not satisfied"],
  ["Cc1cccnc1NC(=S)NC1CCCCC1", "Not satisfied"],
  ["S=C(Nc1ccccn1)NC1CCCCC1", "Not satisfied"]
]}
